- Test system: T1, G9a and GLP (Homo sapiens, UniProt Q96KQ7+Q9H9B1)
- T1 sequence (Q96KQ7 2-1210 limits assumed): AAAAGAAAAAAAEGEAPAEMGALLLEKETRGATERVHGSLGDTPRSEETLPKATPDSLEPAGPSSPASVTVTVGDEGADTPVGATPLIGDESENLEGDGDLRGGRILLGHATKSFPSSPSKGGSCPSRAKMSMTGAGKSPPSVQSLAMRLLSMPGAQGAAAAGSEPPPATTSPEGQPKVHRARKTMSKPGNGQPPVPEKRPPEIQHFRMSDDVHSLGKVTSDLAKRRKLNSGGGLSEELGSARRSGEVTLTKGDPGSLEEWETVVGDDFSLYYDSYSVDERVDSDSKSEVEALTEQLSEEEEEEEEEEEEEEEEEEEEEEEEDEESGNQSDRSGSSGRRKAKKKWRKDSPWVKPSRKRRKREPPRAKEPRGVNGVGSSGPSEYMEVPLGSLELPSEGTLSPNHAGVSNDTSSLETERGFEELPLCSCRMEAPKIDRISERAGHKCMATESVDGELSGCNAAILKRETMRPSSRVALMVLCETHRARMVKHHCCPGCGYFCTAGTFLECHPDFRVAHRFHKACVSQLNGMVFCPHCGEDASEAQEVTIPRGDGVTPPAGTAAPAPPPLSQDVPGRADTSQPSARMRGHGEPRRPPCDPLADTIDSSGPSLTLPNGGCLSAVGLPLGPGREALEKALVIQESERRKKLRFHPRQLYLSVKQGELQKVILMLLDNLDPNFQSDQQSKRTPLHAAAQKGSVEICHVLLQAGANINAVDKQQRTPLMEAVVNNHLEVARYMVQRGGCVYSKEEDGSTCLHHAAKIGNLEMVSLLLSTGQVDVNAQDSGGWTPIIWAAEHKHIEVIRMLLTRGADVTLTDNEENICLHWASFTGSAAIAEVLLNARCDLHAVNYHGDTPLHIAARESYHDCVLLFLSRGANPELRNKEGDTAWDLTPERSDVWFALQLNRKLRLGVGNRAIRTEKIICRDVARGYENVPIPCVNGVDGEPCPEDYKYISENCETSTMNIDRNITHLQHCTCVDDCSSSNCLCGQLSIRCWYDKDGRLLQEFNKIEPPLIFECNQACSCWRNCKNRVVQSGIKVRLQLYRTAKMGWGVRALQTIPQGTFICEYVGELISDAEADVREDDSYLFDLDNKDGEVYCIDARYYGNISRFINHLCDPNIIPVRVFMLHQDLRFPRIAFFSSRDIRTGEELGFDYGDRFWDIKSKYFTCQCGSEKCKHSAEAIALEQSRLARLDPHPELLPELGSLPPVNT
- T1 sequence (Q9H9B1 2-1298 limits assumed): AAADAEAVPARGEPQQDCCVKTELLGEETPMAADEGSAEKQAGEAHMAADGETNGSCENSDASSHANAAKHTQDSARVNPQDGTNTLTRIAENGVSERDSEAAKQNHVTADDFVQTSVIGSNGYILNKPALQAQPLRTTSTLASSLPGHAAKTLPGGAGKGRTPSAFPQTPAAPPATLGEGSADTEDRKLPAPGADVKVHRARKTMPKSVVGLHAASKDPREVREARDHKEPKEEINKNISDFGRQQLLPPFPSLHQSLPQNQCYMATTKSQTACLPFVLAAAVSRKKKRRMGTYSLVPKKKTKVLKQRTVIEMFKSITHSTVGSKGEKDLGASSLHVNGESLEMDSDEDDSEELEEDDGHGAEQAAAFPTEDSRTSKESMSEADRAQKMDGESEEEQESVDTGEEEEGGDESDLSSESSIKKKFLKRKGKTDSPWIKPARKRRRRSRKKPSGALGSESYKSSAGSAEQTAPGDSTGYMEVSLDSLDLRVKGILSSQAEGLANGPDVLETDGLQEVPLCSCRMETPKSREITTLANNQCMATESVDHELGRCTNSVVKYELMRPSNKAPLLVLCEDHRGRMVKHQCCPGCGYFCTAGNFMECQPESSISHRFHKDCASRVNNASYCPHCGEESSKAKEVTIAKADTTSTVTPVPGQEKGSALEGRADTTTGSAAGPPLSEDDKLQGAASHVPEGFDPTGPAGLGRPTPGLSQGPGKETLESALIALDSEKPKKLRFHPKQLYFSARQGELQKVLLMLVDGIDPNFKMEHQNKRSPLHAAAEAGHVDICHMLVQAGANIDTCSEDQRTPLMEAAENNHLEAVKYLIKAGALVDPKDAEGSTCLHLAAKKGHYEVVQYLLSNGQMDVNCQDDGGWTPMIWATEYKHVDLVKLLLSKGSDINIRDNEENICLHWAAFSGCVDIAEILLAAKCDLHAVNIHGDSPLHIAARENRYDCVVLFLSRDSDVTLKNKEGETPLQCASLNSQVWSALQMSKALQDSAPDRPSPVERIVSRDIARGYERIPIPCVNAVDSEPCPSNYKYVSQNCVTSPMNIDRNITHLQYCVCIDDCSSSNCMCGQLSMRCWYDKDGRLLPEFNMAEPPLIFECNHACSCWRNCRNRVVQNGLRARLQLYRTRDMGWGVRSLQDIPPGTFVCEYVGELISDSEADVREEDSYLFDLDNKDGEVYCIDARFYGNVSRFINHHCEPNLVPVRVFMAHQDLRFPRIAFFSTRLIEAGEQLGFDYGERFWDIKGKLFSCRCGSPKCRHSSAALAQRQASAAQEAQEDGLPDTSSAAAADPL
- Experimental details: Triple SILAC pull-down after UNC0638 treatment of 293T cells, DMSO/UNC0638 ratio of protein captured by 3×MBT;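 note: mass spectrometry (Q-Exactive) SILAC quantitation, DMSO/UNC0638 ratio computed after subtracting 3×MBTD355N mutant pull-down background, only proteins with at least twofold 3×MBT over mutant signal considered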
- Type: cell-based
- Parameters: cells were treated for 24 hours with UNC0638 at 2.5 μM or DMSO vehicle control; endogenous in cells; host or cells: HEK 293T
- Condition details: SILAC ratio DMSO/UNC0638 of protein pulled down with 3xMBT; UNC0638 in light SILAC media
Metric name: Relative to UNC0638 UNC Light (log base 2)
Value expressed in log base 2; do not type the unit.

CNBP (protein, UniProt P62633 2-177, looked up) CCHC-type zinc finger nucleic …: SSNECFKCGRSGHWARECPTGGGRGRGMRSRGRGGFTSDRGFQFVSSSLPDICYRCGESGHLAKDCDLQEDACYNCGRGGHIAKDCKEPKREREQCCYNCGKPGHLARDCDHADEQKCYSCGEFGHIQKDCTKVKCYRCGETGHVAINCSKTSEVNCYRCGESGHLARECTIEATA | 0.05
RBMX (protein, UniProt P38159 1-391, looked up) RNA-binding motif protein, X …: MVEADRPGKLFIGGLNTETNEKALEAVFGKYGRIVEVLLMKDRETNKSRGFAFVTFESPADAKDAARDMNGKSLDGKAIKVEQATKPSFESGRRGPPPPPRSRGPPRGLRGGRGGSGGTRGPPSRGGHMDDGGYSMNFNMSSSRGPLPVKRGPPPRSGGPPPKRSAPSGPVRSSSGMGGRAPVSRGRDSYGGPPRREPLPSRRDVYLSPRDDGYSTKDSYSSRDYPSSRDTRDYAPPPRDYTYRDYGHSSSRDDYPSRGYSDRDGYGRDRDYSDHPSGGSYRDSYESYGNSRSAPPTRGPPPSYGGSSRYDDYSSSRDGYGGSRDSYSSSRSDLYSSGRDRVGRQERGLPPSMERGYPPPRDSYSSSSRGAPRGGGRGGSRSDRGGGRSRY | 0.24
C20orf43 (protein, UniProt Q9BY42 1-306, looked up) Replication termination …: MGCDGGTIPKRHELVKGPKKVEKVDKDAELVAQWNYCTLSQEILRRPIVACELGRLYNKDAVIEFLLDKSAEKALGKAASHIKSIKNVTELKLSDNPAWEGDKGNTKGDKHDDLQRARFICPVVGLEMNGRHRFCFLRCCGCVFSERALKEIKAEVCHTCGAAFQEDDVIMLNGTKEDVDVLKTRMEERRLRAKLEKKTKKPKAAESVSKPDVSEEAPGPSKVKTGKPEEASLDSREKKTNLAPKSTAMNESSSGKAGKPPCGATKRSIADSEESEAYKSLFTTHSSAKRSKEESAHWVTHTSYCF | −0.46
SRP14 (protein, UniProt P37108 2-136, looked up) Signal recognition particle …: VLLESEQFLTELTRLFQKCRTSGSVYITLKKYDGRTKPIPKKGTVEGFEPADNKCLLRATDGKKKISTVVSSKEVNKFQMAYSNLLRANMDGLKKRDKKNKTKKTKAAAAAAAAAPAAAATAPTTAATTAATAAQ | 0.07

Would you kindly share the measured Relative to UNC0638 UNC Light for ILKAP (protein, UniProt Q9H0C8 1-392, looked up) Integrin-linked …: MDLFGDLPEPERSPRPAAGKEAQKGPLLFDDLPPASSTDSGSGGPLLFDDLPPASSGDSGSLATSISQMVKTEGKGAKRKTSEEEKNGSEELVEKKVCKASSVIFGLKGYVAERKGEREEMQDAHVILNDITEECRPPSSLITRVSYFAVFDGHGGIRASKFAAQNLHQNLIRKFPKGDVISVEKTVKRCLLDTFKHTDEEFLKQASSQKPAWKDGSTATCVLAVDNILYIANLGDSRAILCRYNEESQKHAALSLSKEHNPTQYEERMRIQKAGGNVRDGRVLGVLEVSRSIGDGQYKRCGVTSVPDIRRCQLTPNDRFILLACDGLFKVFTPEEAVNFILSCLEDEKIQTREGKSAADARYEAACNRLANKAVQRGSADNVTVMVVRIGH ?
0.33
